Tested on: K562 cells
Assay: Cell cycle analysis by flow cytometry
Format: cell-based, human
Settings: 5 μg/mL, 24 h; control 4.5 ± 0.9
Binary label based on K562 cells in SubG1 phase with cut-off 3%: below gives Met, not below gives Not met.

Please review the entries below; each comes with its answer.
{"MOLECULE": "COc1cccc2c1C(=O)c1c(O)c3c(c(O)c1C2=O)C[C@@](O)(C(=O)CO)C[C@@H]3O[C@H]1C[C@H](N)[C@H](O)[C@H](C)O1 [Doxorubicin, reference compound]", "ANSWER_LABEL": "Not met"}
{"MOLECULE": "O=C1Nc2ccc([N+](=O)[O-])cc2C12N1CCCC1C1(c3ccccc3)C(c3ccccc3)C12c1ccccc1 (stereo not drawn)", "ANSWER_LABEL": "Not met"}
{"MOLECULE": "CC(C)C1NC2(C(=O)Nc3ccccc32)C2(c3ccccc3)C(c3ccccc3)C12c1ccccc1 (stereo not drawn)", "ANSWER_LABEL": "Met"}
{"MOLECULE": "CC[C@H](C)C1NC2(C(=O)Nc3ccccc32)C2(c3ccccc3)C(C(=O)OC)C12c1ccccc1 (stereo partly drawn)", "ANSWER_LABEL": "Not met"}
{"MOLECULE": "NC(=O)CC1NC2(C(=O)Nc3ccccc32)C2(c3ccccc3)C(c3ccccc3)C12c1ccccc1 (stereo not drawn)", "ANSWER_LABEL": "Not met"}

Please examine the following record next.
For this molecule, is K562 cells in SubG1 phase lower than 3%? COC(=O)C1C2(c3ccccc3)C(Cc3ccc(O)cc3)NC3(C(=O)Nc4ccccc43)C12c1ccccc1 (stereo not drawn) Met

###

# K562 cells in G0/G1 phase per entry
Tested on: K562 cells
Experiment: Cell cycle analysis by flow cytometry
Assay type: cell-based, human
Details: 10 μg/mL, 24 h; control 40.5 ± 1.3
Quick note: give the figure in %, leave out the unit.

Before answering, review these 3 worked examples.
{"COMPOUND": "NC(=O)CC1NC2(C(=O)Nc3ccccc32)C2(c3ccccc3)C(c3ccccc3)C12c1ccccc1 (stereo not shown) [Compound 18]", "K562 cells in G0/G1 phase / %": 70.1}
{"COMPOUND": "O=C1Nc2ccc([N+](=O)[O-])cc2C12N1CCCC1C1(c3ccccc3)C(c3ccccc3)C12c1ccccc1 (stereo not shown) [Compound 2]", "K562 cells in G0/G1 phase / %": 68.8}
{"COMPOUND": "COC(=O)C1C2(c3ccccc3)C(Cc3ccc(O)cc3)NC3(C(=O)Nc4ccccc43)C12c1ccccc1 (stereo not shown) [Compound 17]", "K562 cells in G0/G1 phase / %": 71.5}

Quick one: K562 cells in G0/G1 phase of CC[C@H](C)C1NC2(C(=O)Nc3ccccc32)C2(c3ccccc3)C(C(=O)OC)C12c1ccccc1 (stereo partly shown) [Compound 4] ? 56.9

###

Test system: K562 cells
Test: Cell cycle analysis by flow cytometry
Type: cell-based, human
Conditions: 10 μg/mL, 24 h; control 31.9 ± 1.0
MEASUREMENT_TYPE: K562 cells in S phase (%)
Quick note: give the figure in %, leave out the unit.

Before answering, review these 4 worked examples.
{"COMPOUND": "O=C1Nc2ccc([N+](=O)[O-])cc2C12N1CCCC1C1(c3ccccc3)C(c3ccccc3)C12c1ccccc1 (centres unmarked)", "VALUE_OBSERVED": 15.6}
{"COMPOUND": "CC(C)C1NC2(C(=O)Nc3ccccc32)C2(c3ccccc3)C(c3ccccc3)C12c1ccccc1 (centres unmarked)", "VALUE_OBSERVED": 16.6}
{"COMPOUND": "NC(=O)CC1NC2(C(=O)Nc3ccccc32)C2(c3ccccc3)C(c3ccccc3)C12c1ccccc1 (centres unmarked)", "VALUE_OBSERVED": 19.0}
{"COMPOUND": "COC(=O)C1C2(c3ccccc3)C(Cc3ccc(O)cc3)NC3(C(=O)Nc4ccccc43)C12c1ccccc1 (centres unmarked)", "VALUE_OBSERVED": 14.3}

Quick one: K562 cells in S phase of CC[C@H](C)C1NC2(C(=O)Nc3ccccc32)C2(c3ccccc3)C(C(=O)OC)C12c1ccccc1 (some centres unmarked) ? 26.4

###

# IC50 per entry
System: mouse colon carcinoma (CT26) cell line
Experiment: MTS cell proliferation assay, CT26
Type: cell-based
Details: Mus musculus, read-out: IC50 CT26 24 h; CT26, 24 h, MTS

{"COMPOUND": "COC(=O)C1C2(c3ccccc3)C(Cc3ccc(O)cc3)NC3(C(=O)Nc4ccccc43)C12c1ccccc1 (stereo not shown) [Compound 17]", "TARGET": "mouse colon carcinoma (CT26) cell line", "IC50": "> 40 µM"}
{"COMPOUND": "CC[C@H](C)C1NC2(C(=O)Nc3ccccc32)C2(c3ccccc3)C(c3ccccc3)C12c1ccccc1 (stereo partly shown) [Compound 23]", "TARGET": "mouse colon carcinoma (CT26) cell line", "IC50": "> 40 µM"}

Quick one: IC50 of NC(=O)CC1NC2(C(=O)Nc3ccccc32)C2(c3ccccc3)C(c3ccccc3)C12c1ccccc1 (stereo not shown) [Compound 18] ? 27 µM

One more compound: O=C1Nc2ccc([N+](=O)[O-])cc2C12N1CCCC1C1(c3ccccc3)C(c3ccccc3)C12c1ccccc1 (stereo not shown) [Compound 2] > 40 µM

One more compound: CC[C@H](C)C1NC2(C(=O)Nc3ccccc32)C2(c3ccccc3)C(C(=O)OC)C12c1ccccc1 (stereo partly shown) [Compound 4] > 40 µM

One more compound: CSCCC1NC2(C(=O)Nc3ccccc32)C2(c3ccccc3)C(c3ccccc3)C12c1ccccc1 (stereo not shown) [Compound 24] > 40 µM

One more compound: COc1cccc2c1C(=O)c1c(O)c3c(c(O)c1C2=O)C[C@@](O)(C(=O)CO)C[C@@H]3O[C@H]1C[C@H](N)[C@H](O)[C@H](C)O1 [Doxorubicin, reference compound] 19 µM

One more compound: COC(=O)C1C2(c3ccccc3)C(Cc3c[nH]c4ccccc34)NC3(C(=O)Nc4ccccc43)C12c1ccccc1 (stereo not shown) [Compound 11] > 40 µM

One more compound: CC(C)C1NC2(C(=O)Nc3ccccc32)C2(c3ccccc3)C(c3ccccc3)C12c1ccccc1 (stereo not shown) [Compound 8] > 40 µM

One more compound: CC(C)CC1NC2(C(=O)Nc3ccccc32)C2(c3ccccc3)C(c3ccccc3)C12c1ccccc1 (stereo not shown) [Compound 22] > 40 µM

###

System: peripheral blood mononuclear cells (PBMC)
Assay: MTS cytotoxicity towards normal cells, PBMC
Type: cell-based
Details: Homo sapiens, read-out: IC50 PBMC 24 h, 24 h
MEASUREMENT_TYPE: IC50 (µM)
Quick note: give the figure in µM, leave out the unit.

{"COMPOUND": "COC(=O)C1C2(c3ccccc3)C(Cc3ccc(O)cc3)NC3(C(=O)Nc4ccccc43)C12c1ccccc1 (stereo not drawn)", "IC50, µM": 127}
{"COMPOUND": "CC[C@H](C)C1NC2(C(=O)Nc3ccccc32)C2(c3ccccc3)C(c3ccccc3)C12c1ccccc1 (stereo partly drawn)", "IC50, µM": 177}
{"COMPOUND": "NC(=O)CC1NC2(C(=O)Nc3ccccc32)C2(c3ccccc3)C(c3ccccc3)C12c1ccccc1 (stereo not drawn)", "IC50, µM": 29}
{"COMPOUND": "CC(C)CC1NC2(C(=O)Nc3ccccc32)C2(c3ccccc3)C(c3ccccc3)C12c1ccccc1 (stereo not drawn)", "IC50, µM": 132}
{"COMPOUND": "O=C1Nc2ccc([N+](=O)[O-])cc2C12N1CCCC1C1(c3ccccc3)C(c3ccccc3)C12c1ccccc1 (stereo not drawn)", "IC50, µM": 121}

What value of IC50 on peripheral blood mononuclear cells (PBMC) does CC(C)C1NC2(C(=O)Nc3ccccc32)C2(c3ccccc3)C(c3ccccc3)C12c1ccccc1 (stereo not drawn) have? 83

###

Tested on: K562 cells
Test: Cell cycle analysis by flow cytometry
Format: cell-based, human
Conditions: 5 μg/mL, 24 h; control 31.9 ± 1.0
From the text: Since growth inhibition may be a result of cell cycle arrest at a particular point, the specific antiproliferative activity of several cycloadducts was further evaluated by flow cytometry to study their impact on the progression of the cell cycle in K562 cells. […] The distribution of K562 cells in the G0/G1-, S- and G2/M-phases of the cell cycle was obtained by quantification of DNA content using flow cytometry in DAPI-stained cells. […]
MEASUREMENT_TYPE: K562 cells in S phase (%)
Quick note: give the figure in %, leave out the unit.

Before answering, review these 2 worked examples.
{"COMPOUND": "CC(C)C1NC2(C(=O)Nc3ccccc32)C2(c3ccccc3)C(c3ccccc3)C12c1ccccc1 (stereo not drawn)", "MEASUREMENT_TYPE": "K562 cells in S phase", "VALUE_OBSERVED": 25.7}
{"COMPOUND": "O=C1Nc2ccc([N+](=O)[O-])cc2C12N1CCCC1C1(c3ccccc3)C(c3ccccc3)C12c1ccccc1 (stereo not drawn)", "MEASUREMENT_TYPE": "K562 cells in S phase", "VALUE_OBSERVED": 29.5}

Quick one: K562 cells in S phase of COc1cccc2c1C(=O)c1c(O)c3c(c(O)c1C2=O)C[C@@](O)(C(=O)CO)C[C@@H]3O[C@H]1C[C@H](N)[C@H](O)[C@H](C)O1 [Doxorubicin, reference compound] ? 0.8
